Known furin cleavage Z-score of a selection of sequences
target: furin, P09958; assay: furin cleavage Z-score vs untreated control; higher = more cleavage, active = 3.5 or more, inactive = 1 or less, 8 variable residues between constant flanks; conditions: 7.5 min;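 also: purified furin at 1:10 enzyme:substrate in 50 mM HEPES pH 7.5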
Sequence (P09958 whole entry): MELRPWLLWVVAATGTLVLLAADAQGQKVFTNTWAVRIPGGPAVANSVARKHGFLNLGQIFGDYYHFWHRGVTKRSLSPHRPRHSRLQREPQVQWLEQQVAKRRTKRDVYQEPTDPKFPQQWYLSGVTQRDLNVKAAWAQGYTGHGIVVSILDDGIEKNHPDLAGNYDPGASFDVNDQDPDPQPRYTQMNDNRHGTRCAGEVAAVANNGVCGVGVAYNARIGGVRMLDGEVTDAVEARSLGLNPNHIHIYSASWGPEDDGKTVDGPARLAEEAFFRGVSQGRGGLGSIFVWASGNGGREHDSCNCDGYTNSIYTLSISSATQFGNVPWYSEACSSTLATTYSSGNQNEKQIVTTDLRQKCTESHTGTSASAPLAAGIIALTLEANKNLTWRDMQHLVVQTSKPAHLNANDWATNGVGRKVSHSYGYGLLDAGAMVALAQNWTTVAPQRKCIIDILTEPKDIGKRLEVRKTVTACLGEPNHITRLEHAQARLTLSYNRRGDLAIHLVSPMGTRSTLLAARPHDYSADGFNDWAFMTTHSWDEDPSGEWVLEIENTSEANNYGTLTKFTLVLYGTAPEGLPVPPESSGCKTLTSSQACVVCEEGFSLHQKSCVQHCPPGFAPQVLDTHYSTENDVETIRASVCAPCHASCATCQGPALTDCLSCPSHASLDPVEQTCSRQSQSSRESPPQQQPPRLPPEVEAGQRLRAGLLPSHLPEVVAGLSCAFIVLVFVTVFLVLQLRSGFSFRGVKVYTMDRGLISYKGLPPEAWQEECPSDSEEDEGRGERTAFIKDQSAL
This is one part of the list. How many sequences the whole screen found active is unknown.
Just the number, please, no unit attached.

# example entries with known answers
CASIYPGHITAGNASASA [HC314] ... -1.99
CAQKLETFWAAGNASASA [HC1038] ... 2.24
CALNGRCRRTAGNASASA [FS-134] ... 6.57
CAQTSRNTRSAGNASASA [FS-184] ... 9.04
CARFRRKRRHAGNASASA [FS-854] ... 9.74

Param item = CAIVPCHRPSAGNASASA [HC2304] ; retrieve measured furin cleavage Z-score.
0.422

Param item = CATPSRCVRIAGNASASA [FS-203] ; retrieve measured furin cleavage Z-score.
0.645

Param item = CATPSRAGRAAGNASASA [FS-99] ; retrieve measured furin cleavage Z-score.
3.27

Param item = CATPSRMIRTAGNASASA [FS-1425] ; retrieve measured furin cleavage Z-score.
4.04

Param item = CAMEECSQHPAGNASASA [HC1779] ; retrieve measured furin cleavage Z-score.
-0.177

Param item = CACINGVCWTAGNASASA [HC697] ; retrieve measured furin cleavage Z-score.
-0.68

Param item = CALNGREHRSAGNASASA [FS-353] ; retrieve measured furin cleavage Z-score.
0.641

Param item = CASTPCSPHLAGNASASA [HC2539] ; retrieve measured furin cleavage Z-score.
2.23

Param item = CAKKGRNRRTAGNASASA [FS-935] ; retrieve measured furin cleavage Z-score.
9.29

Param item = CAVPCCSMSYAGNASASA [HC2019] ; retrieve measured furin cleavage Z-score.
-0.257
